Assay: Metabolic stability in human plasma assessed as parent compound remaining after 120 mins by LC-MS/MS analysis
Format: ADME, cell-free
Settings: read-out: Stability
Measure name: remaining at 2 h (%)
Numbers only, in %.

- Molecule: "O=C(NC(Cn1ccnc1)C(=O)c1cccc(F)c1)c1ccc(-c2ccc(Cl)cc2)s1 (configuration not stated)"
  Unit symbol: "%"
  Experimental result: 47.1

Now for a further molecule.
Supply recorded remaining at 2 h for Cc1ccc(C(=O)C(Cn2ccnc2)NC(=O)c2ccc(-c3ccc(Cl)cc3)s2)cc1 (configuration not stated) here.
89.5

---

Consider the following compounds; for each one, report its IC50.
System: MCF7
Test: Cytotoxicity against human MCF7 cells assessed as reduction in cell viability measured after 96 hrs by MTT assay
Assay type: ADME, cell-based
Conditions: MCF7, 96 h

Examples with answers:
- Compound: "Cc1ccc(C(=O)C(Cn2ccnc2)NC(=O)c2ccc(-c3ccc(Cl)cc3)s2)cc1 (stereo not given)"
  IC50: "> 30 µM"
- Compound: "C[C@@H](c1ncncc1F)[C@](O)(Cn1cncn1)c1ccc(F)cc1F"
  IC50: "> 30 µM"

Parameter requested: IC50. Apply to each item below.
1. OC(Cn1cncn1)(Cn1cncn1)c1ccc(F)cc1F
2. O=C(NC(Cn1ccnc1)C(=O)c1cccc(F)c1)c1ccc(-c2ccc(Cl)cc2)s1 (stereo not given)
3. CCC(C)n1ncn(-c2ccc(N3CCN(c4ccc(OCC5COC(Cn6cncn6)(c6ccc(Cl)cc6Cl)O5)cc4)CC3)cc2)c1=O (stereo not given)

> 30 µM
> 30 µM
> 30 µM

---

Experiment: Metabolic stability in human plasma assessed as half life after 60 mins by LC-MS/MS analysis
Format: ADME, cell-free
Measure name: half-life (h)
Numbers only, in h.

Find the measured half-life of O=C(NC(Cn1ccnc1)C(=O)c1cccc(F)c1)c1ccc(-c2ccc(Cl)cc2)s1 (configuration not stated) and report it.
1.85

---

Target: CYP2C9 (Homo sapiens, UniProt P11712)
Sequence (P11712 whole entry): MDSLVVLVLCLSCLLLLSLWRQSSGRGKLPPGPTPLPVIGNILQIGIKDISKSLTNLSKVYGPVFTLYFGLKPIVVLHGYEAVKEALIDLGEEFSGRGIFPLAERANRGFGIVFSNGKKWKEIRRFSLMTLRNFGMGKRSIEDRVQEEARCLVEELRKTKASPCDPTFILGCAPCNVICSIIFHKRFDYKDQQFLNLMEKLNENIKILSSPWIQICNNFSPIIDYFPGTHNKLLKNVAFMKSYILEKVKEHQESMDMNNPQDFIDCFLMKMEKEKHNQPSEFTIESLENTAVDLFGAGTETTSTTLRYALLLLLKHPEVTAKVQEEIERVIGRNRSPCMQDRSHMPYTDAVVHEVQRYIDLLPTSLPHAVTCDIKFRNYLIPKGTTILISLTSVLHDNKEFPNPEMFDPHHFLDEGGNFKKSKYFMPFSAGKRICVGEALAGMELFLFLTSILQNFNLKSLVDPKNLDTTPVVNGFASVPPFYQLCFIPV
Test: Inhibition of CYP2C9 in human liver Microsome using diclofenac as substrate preincubated for 10 mins followed by NADPH addition and further incubated for 10 mins as substrate by LC-MS/MS analysis relative to control
Details: liver microsomes, probe diclofenac
Measure name: inhibition at 10 min (%)
Answers are plain numbers, in %.

Entry Nc1ccc(S(=O)(=O)Nc2ccnn2-c2ccccc2)cc1 needs its inhibition at 10 min filled in; supply it.
84.5

---

Test system: Cryptococcus neoformans
Assay: Antifungal activity against Cryptococcus neoformans CGMCC2.3161 assessed as fungal growth inhibition by CLSI protocol based method
Format: functional
For each of the compounds below, state its MIC.

A selection of reference data follows.
- Compound: "O=C(NC(Cn1ccnc1)C(=O)c1ccccc1)c1ccc(-c2ccc(OC(F)(F)F)cc2)s1 (centres undefined)"
  Subject of test: "Cryptococcus neoformans"
  MIC: "> 64 µg/mL"
- Compound: "O=C(NC(Cn1ccnc1)C(=O)c1ccccc1)c1ccc(N2CCN(c3ccccc3)CC2)cc1 (centres undefined)"
  Subject of test: "Cryptococcus neoformans"
  MIC: "> 64 µg/mL"
- Compound: "CCOc1ccc(-c2ccc(C(=O)NC(Cn3ccnc3)C(=O)c3ccccc3)s2)cc1 (centres undefined)"
  Subject of test: "Cryptococcus neoformans"
  MIC: "> 64 µg/mL"
- Compound: "O=C(NC(Cn1ccnc1)C(=O)c1ccccc1)c1ccc(-c2cccc(Cl)c2)s1 (centres undefined)"
  Subject of test: "Cryptococcus neoformans"
  MIC: "> 64 µg/mL"
- Compound: "O=C(NC(Cn1ccnc1)C(=O)c1ccccc1)c1ccc(-c2ccsc2)cc1 (centres undefined)"
  Subject of test: "Cryptococcus neoformans"
  MIC: "8 µg/mL"
- Compound: "O=C(NC(Cn1ccnc1)C(=O)c1ccccc1)c1ccc(-c2ccccc2Cl)s1 (centres undefined)"
  Subject of test: "Cryptococcus neoformans"
  MIC: "> 64 µg/mL"
- Compound: "COc1ccc(C(=O)C(Cn2ccnc2)NC(=O)c2ccc(-c3ccc(Cl)cc3)s2)cc1 (centres undefined)"
  Subject of test: "Cryptococcus neoformans"
  MIC: "> 64 µg/mL"
- Compound: "O=C(NC(Cn1ccnc1)C(=O)c1ccccc1)c1ccc(-c2ccccc2)o1 (centres undefined)"
  Subject of test: "Cryptococcus neoformans"
  MIC: "> 64 µg/mL"

Now turn to the next compound.
Specify reported MIC for the compound shown: O=C(NC(Cn1ccnc1)C(=O)c1cccc(F)c1)c1ccc(-c2ccc(Cl)cc2)s1 (centres undefined)
0.25 µg/mL

---

Tested on: Candida albicans
Experiment: Anti-biofilm activity in Candida albicans CPCC400616 assessed as inhibition of biofilm formation incubated for 3 hrs by XTT assay
Assay type: functional
I'd be grateful if you could share measured MBIC50 for these entries.
Please format your answer as a value with the unit trailing.

Use these answered entries as a reference point.
- Compound: "CCC(C)n1ncn(-c2ccc(N3CCN(c4ccc(OCC5COC(Cn6cncn6)(c6ccc(Cl)cc6Cl)O5)cc4)CC3)cc2)c1=O (stereo not given)"
  Subject of test: "Candida albicans"
  Measure name: "MBIC50"
  Experimental result: "16 µg/mL"
- Compound: "C[C@@H](c1ncncc1F)[C@](O)(Cn1cncn1)c1ccc(F)cc1F"
  Subject of test: "Candida albicans"
  Measure name: "MBIC50"
  Experimental result: "16 µg/mL"
- Compound: "OC(Cn1cncn1)(Cn1cncn1)c1ccc(F)cc1F"
  Subject of test: "Candida albicans"
  Measure name: "MBIC50"
  Experimental result: "32 µg/mL"
- Compound: "Cc1ccc(C(=O)C(Cn2ccnc2)NC(=O)c2ccc(-c3ccc(Cl)cc3)s2)cc1 (stereo not given)"
  Subject of test: "Candida albicans"
  Measure name: "MBIC50"
  Experimental result: "1 µg/mL"

Then this compound:
Fill in reported MBIC50 for this entry: O=C(NC(Cn1ccnc1)C(=O)c1cccc(F)c1)c1ccc(-c2ccc(Cl)cc2)s1 (stereo not given)
2 µg/mL

---

Test system: Candida albicans
Assay: Antifungal activity against fluconazole-resistant Candida albicans 901 assessed as fungal growth inhibition by CLSI protocol based method
Measure name: MIC (µg/mL)
Answers are plain numbers, in µg/mL.

- Compound: "O=C(NC(Cn1ccnc1)C(=O)c1cccc(Cl)c1)c1ccc(-c2ccc(Cl)cc2)s1 (stereo unspecified)"
  Subject of test: "Candida albicans"
  MIC / µg/mL: 8
- Compound: "COc1ccc(-c2ccc(C(=O)NC(Cn3ccnc3)C(=O)c3ccccc3)s2)cc1 (stereo unspecified)"
  Subject of test: "Candida albicans"
  MIC / µg/mL: 2
- Compound: "O=C(NC(Cn1ccnc1)C(=O)c1cccc(F)c1)c1ccc(-c2ccc(Cl)cc2)s1 (stereo unspecified)"
  Subject of test: "Candida albicans"
  MIC / µg/mL: 2

Items follow; give MIC for each.
1. O=C(NC(Cn1ccnc1)C(=O)c1ccccc1)c1ccc(-c2ccc(Cl)cc2)s1 (stereo unspecified)
2. Cc1ccc(C(=O)C(Cn2ccnc2)NC(=O)c2ccc(-c3ccc(Cl)cc3)s2)cc1 (stereo unspecified)
3. COc1ccc(C(=O)C(Cn2ccnc2)NC(=O)c2ccc(-c3ccc(Cl)cc3)s2)cc1 (stereo unspecified)
4. O=C(NC(Cn1ccnc1)C(=O)c1ccc(F)cc1)c1ccc(-c2ccc(Cl)cc2)s1 (stereo unspecified)
5. O=C(NC(Cn1ccnc1)C(=O)c1ccccc1)c1ccc(-c2ccc(C(F)(F)F)cc2)s1 (stereo unspecified)

[4, 1, 8, 8, 4]

Field: MIC. Fill in for each record below.
1. O=C(NC(Cn1ccnc1)C(=O)c1ccccc1)c1ccc(-c2ccccc2)s1 (stereo unspecified)
2. O=C(NC(Cn1ccnc1)C(=O)c1ccccc1F)c1ccc(-c2ccc(Cl)cc2)s1 (stereo unspecified)

1. 4
2. 2
